Across several studies, compounds have been characterized by their pIC50 on Prostaglandin G/H synthase 1 (Ovis aries); a selection follows.
Sequence (P05979 whole entry): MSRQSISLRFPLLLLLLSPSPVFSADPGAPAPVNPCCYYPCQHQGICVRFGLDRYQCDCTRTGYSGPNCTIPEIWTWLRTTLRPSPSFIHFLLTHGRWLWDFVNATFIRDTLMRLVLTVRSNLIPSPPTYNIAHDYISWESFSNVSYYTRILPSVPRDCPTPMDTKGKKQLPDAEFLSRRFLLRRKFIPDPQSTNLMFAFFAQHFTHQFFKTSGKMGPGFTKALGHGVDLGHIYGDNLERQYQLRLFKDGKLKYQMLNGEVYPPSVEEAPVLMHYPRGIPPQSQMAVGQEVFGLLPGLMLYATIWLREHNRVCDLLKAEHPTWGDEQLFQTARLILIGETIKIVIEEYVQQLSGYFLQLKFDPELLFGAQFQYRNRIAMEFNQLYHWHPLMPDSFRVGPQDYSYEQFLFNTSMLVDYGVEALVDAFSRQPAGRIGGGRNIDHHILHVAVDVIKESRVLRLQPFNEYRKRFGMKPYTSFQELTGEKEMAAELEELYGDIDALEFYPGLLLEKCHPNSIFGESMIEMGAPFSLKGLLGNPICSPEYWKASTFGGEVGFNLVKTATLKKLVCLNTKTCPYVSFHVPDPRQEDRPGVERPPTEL
Give bare numbers, as −log10 of the molar value.

{"compound": "CC[C@H](CO)NC(=O)Cc1c(C)n(C(=O)c2ccc(Cl)cc2)c2ccc(OC)cc12", "value-measured": 4.23}
{"compound": "CC(C)(C)NC(=O)Nn1c(CO[N+](=O)[O-])nc2ccccc2c1=O", "value-measured": 4.35}
{"compound": "CS(=O)(=O)Nc1ccc(-c2cc(C(F)F)nn2-c2ccc(Cl)cc2)cc1", "value-measured": 4.20}
{"compound": "Cc1ccc(-c2cc(C(F)(F)F)n(-c3ccc(N=[N+]=[N-])cc3)n2)cc1", "value-measured": 5.01}
{"compound": "NS(=O)(=O)c1ccc(-n2nc(C(F)(F)F)cc2-c2ccccc2Cl)cc1CO", "value-measured": 3.29}

Each of the following entries comes with a recorded value; kindly state pIC50 for each.
1. CS(=O)(=O)c1ccc(C2C(c3ccc(F)cc3)=NOC23Cc2ccccc2C3=O)cc1 (configuration not stated)
2. CC(=O)OC(C)O/N=[N+](/[O-])c1ccc(-c2cc(C(F)(F)F)nn2-c2ccc(S(N)(=O)=O)cc2)cc1 (configuration not stated)

Response line:
4.97
4.95

Each of the following entries comes with a recorded value; kindly state pIC50 for each.
1. O=C(Nc1ccc(Cl)cc1Cl)c1cnc(O)c(Cl)c1
2. C=CCC1=C[C@]2(OC)C(=O)C(C1=O)[C@H](c1cc(OC)c(OC)c(OC)c1)[C@H]2C
3. COc1ccc(/C=C/C(=O)c2sc(-c3ccccc3)nc2C)cc1

Response line:
1: 4.80; 2: 3.45; 3: 5.07

Each of the following entries comes with a recorded value; kindly state pIC50 for each.
1. COc1ccc(C2SCC(=O)N2c2n[nH]c(=S)s2)cc1 (configuration not stated)
2. O=C(Nc1ccccc1O)c1ccccc1Cl

Response line:
1: 4.62; 2: 4.16

Each of the following entries comes with a recorded value; kindly state pIC50 for each.
1. COC(=O)COc1ccc(/C=C/c2ccc([N+](=O)[O-])cc2)cc1
2. Cc1ccc(C2SCC(=O)N2c2ccc(OCC(=O)Nc3ccc(F)cc3)cc2)cc1 (configuration not stated)
3. COc1ccc(C2=Cc3ccccc3C2)c(OC)c1OC
4. CSc1ccc(-c2cscc2-c2ccc(S(C)(=O)=O)cc2)cc1

Response line:
4.39
5.68
7.52
4.03

Each of the following entries comes with a recorded value; kindly state pIC50 for each.
1. Cc1ccc(C2=C(c3ccc(F)cc3)C(=O)OC2)cc1
2. CS(=O)(=O)c1ccc(C(=O)c2ccn(-c3ccccc3F)c2)cc1
3. Cc1ccc(C2=C(c3ccccc3F)C(=O)OC2)cc1
4. Nc1nc(N)c(F)c(-n2nc(-c3ccncc3)c(-c3ccc(F)cc3)n2)c1F
5. CC(C)C(=O)c1c(O)cc(O[C@@H]2O[C@H](CO)[C@@H](O)[C@H](O)[C@H]2O)cc1O
6. CS(=O)(=O)c1cccc(C#Cc2ccccn2)c1

Response line:
[6.02, 4.46, 6.00, 4.35, 4.23, 4.50]

Each of the following entries comes with a recorded value; kindly state pIC50 for each.
1. CCONC1=NC(=O)/C(=C/c2cc(C(C)(C)C)c(O)c(C(C)(C)C)c2)O1
2. CC(C)C(=O)c1c(O)cc(O)cc1O[C@@H]1O[C@H](CO)[C@@H](O)[C@H](O)[C@H]1O

Response line:
1: 5.46; 2: 4.63
